In what follows, each item is paired with its IC50 for acyl-CoA:cholesterol acyltransferase (ACAT) (Oryctolagus cuniculus, UniProt G1SFD9).
Your answer is read as µM, so omit the unit and give the number.

Below are worked cases with known answers.
{"columns": ["Molecule", "Unit name", "IC50"],
 "data": [
  ["CCOC(=O)C=Cc1ccc(NC(=O)C(C)(C)CCCOc2cc(C)ccc2C)cc1 [Example 5, reference compound]", "µM", 45],
  ["Cc1ccc(C)c(OCCCC(C)(C)C(=O)Nc2ccc(F)cc2F)c1", "µM", 7],
  ["COc1cc(C)ccc1NC(=O)C(C)(C)CCCOc1cc(C)ccc1C", "µM", 6],
  ["CCOc1ccccc1NC(=O)C(C)(C)CCCOc1cc(C)ccc1C", "µM", 5],
  ["Cc1ccc(C)c(OCCCC(C)(C)C(=O)Nc2ccc3c(c2)OCO3)c1", "µM", 6]
]}

Here's the next entry for you.
Entry `COC(=O)C(C)(C)CCCOc1ccccc1NC(=O)C(C)(C)CCCOc1cc(C)ccc1C` ; IC50 = 8
